- Test system: TO-3-N3 (biotin conjugate)
- Measurement Description: pull-down binding Z-score (relative to library population); higher = stronger binding
- Experimental Conditions: RNA library: Library-2
Listed here are sequences together with their documented pull-down binding Z-score.
Reported Metric: pull-down binding Z-score

{"columns": ["Input Sequence", "Quantitative Readout"],
 "data": [
  ["GUUCUCAGUACAGAGAAAUCUCCCUUUUGACAGAACAACCAUUAUGGCAGCAUUCAAUGGGAAUACAGAGGGGAGAACAUCUGACAUGAGGAC [IAV_invivo_NP_5_Motif_22+IAV_invivo_NP_5_Motif_22]", 0.104],
  ["UCCUAUUUCUGAACAUGACUACCAGAUUGGUGGUUAUACUGAAAAAUGGGA", 0.1],
  ["GUGGCUAAAUCUGAAUUUGACCGUGAUGCAGCCAU [DMSMaPseq_invitro_SARS-CoV-2_Motif_214]", -0.576],
  ["UGGCCAUGGUACAUUUGGCUA", 0.537],
  ["CCCAUUUAAAAUAUGGAA [hsa-mir-548ai]", 0.535],
  ["GACCAAAAGUCAACAUUAAACAACAAAUCUUGGCC [hsa-mir-5708]", -0.733],
  ["GCAGCACUGUGCUGGGGAUGUUGC [hsa-mir-1301]", 1.08],
  ["GCCCUUAUAGGGC [IAV_invivo_NA_6_Motif_5+IAV_invivo_NA_6_Motif_5]", 0.164],
  ["UAGGGCUGGAUGGUAGGGCCCA [hsa-mir-6890]", 0.343]
]}
